biological target: relaxed plasmid pBR322; test: DNA intercalation/binding assay; details: pBR322 with calf thymus topoisomerase I, 30 minutes at 37° C.; read-out: Drug Concentration causing 50% Intercalation of DNA
Measurement label: IC50

Below: 3 molecules and their reported IC50.
Look up and state reported IC50 for O=C1c2ccc(N3CCCC3)c3cc(Br)cc(c23)C(=O)N1O > 100 µM

Identify IC50 associated with the molecule O=C1c2cccc3c(N4CCOCC4)c([N+](=O)[O-])cc(c23)C(=O)N1O 94 µM

Fill in reported IC50 for this entry: Nc1c(Br)cc2c3c(cccc13)C(=O)N(O)C2=O > 100 µM

Next molecule, IC50 to be filled in.
Identify IC50 associated with the molecule CN(C)CCN1C(=O)c2cc([N+](=O)[O-])cc3cc([N+](=O)[O-])cc(c23)C1=O [Ref #1, reference compound] < 10 µM

---

experiment: Mammalian cell cytotoxicity, colony formation; assay type: cell-based; conditions: Chinese hamster; drug for 3 hours at 37° C., colony formation after 5 days; read-out: 50% Cytotoxic Conc. in CHO cells
Measurement label: IC50 at 3 h (µM)
Please state the figure in µM; there is no need to write the unit.

Name the recorded IC50 at 3 h of the molecule listed here: O=C1c2cc([N+](=O)[O-])cc3cc([N+](=O)[O-])cc(c23)C(=O)N1O [Example 42] 160

---

molecular target: E. coli topoisomerase IV (Escherichia coli, UniProt P0AFI2+P20083); construct: made in house; host or cells: E. coli overexpressing strains; assay: Topoisomerase IV k-DNA decatenation assay; type: biochemical; details: read-out: Top IV IC50
Sequence (P0AFI2 whole entry): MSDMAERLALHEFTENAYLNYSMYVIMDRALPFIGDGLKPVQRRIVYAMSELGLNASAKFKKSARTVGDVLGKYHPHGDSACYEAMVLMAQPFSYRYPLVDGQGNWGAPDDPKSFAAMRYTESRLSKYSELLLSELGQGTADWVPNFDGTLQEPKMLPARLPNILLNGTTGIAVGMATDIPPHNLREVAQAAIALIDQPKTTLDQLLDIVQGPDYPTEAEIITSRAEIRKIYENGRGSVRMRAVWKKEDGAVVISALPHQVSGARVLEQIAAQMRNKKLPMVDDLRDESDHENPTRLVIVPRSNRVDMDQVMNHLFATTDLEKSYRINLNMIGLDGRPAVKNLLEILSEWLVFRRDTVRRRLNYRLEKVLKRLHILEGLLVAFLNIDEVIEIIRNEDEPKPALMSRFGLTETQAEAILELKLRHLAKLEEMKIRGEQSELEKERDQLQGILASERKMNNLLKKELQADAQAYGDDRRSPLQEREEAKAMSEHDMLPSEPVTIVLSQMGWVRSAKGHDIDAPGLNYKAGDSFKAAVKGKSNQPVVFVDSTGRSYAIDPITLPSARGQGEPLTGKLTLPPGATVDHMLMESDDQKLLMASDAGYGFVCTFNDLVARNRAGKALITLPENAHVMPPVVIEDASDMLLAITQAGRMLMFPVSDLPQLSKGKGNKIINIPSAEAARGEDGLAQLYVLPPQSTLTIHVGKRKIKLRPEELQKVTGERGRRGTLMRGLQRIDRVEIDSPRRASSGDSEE
Sequence (P20083 whole entry): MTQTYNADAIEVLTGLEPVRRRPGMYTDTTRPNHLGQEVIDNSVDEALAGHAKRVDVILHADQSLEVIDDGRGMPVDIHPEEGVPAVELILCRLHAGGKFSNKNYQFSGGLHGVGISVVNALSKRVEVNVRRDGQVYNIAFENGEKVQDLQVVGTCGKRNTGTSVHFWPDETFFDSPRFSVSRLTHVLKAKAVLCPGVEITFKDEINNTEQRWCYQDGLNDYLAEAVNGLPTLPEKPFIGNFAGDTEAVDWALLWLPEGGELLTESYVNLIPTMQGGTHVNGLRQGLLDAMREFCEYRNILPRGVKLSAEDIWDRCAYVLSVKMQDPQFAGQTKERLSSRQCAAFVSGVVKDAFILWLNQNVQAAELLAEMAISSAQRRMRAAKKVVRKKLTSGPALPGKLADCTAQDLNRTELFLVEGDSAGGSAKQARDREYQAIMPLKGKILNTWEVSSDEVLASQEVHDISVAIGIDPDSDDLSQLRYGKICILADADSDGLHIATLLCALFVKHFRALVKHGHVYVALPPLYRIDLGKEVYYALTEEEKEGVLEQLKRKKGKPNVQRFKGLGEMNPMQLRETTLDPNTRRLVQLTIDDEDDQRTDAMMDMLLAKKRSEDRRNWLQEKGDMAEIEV
Measurement label: IC50 (µM)
Give a bare numeral; the unit µM is implied.

Give the reported IC50 for this molecule. NC1CCN(c2c(Cl)cc3c4c(cc([N+](=O)[O-])cc24)C(=O)N(O)C3=O)C1.O=C(O)C(F)(F)F (centres unmarked) [Example 115] 9

# ---- query molecule ----
Please give the documented IC50 of NC1CCN(c2ccc3c4c(cc(Cl)c(Cl)c24)C(=O)N(O)C3=O)C1.O=C(O)C(F)(F)F (centres unmarked) [Example 117] 4

---

system: E. coli To1C; assay: Antibacterial assay, standard microtitration, MIC; assay type: cell-based; conditions: Gram negative, E. coli To1C
Measurement label: Minimum Inhibitory Concentrations, E. coli To1C (µg/mL)
Just the number in µg/mL, nothing appended.

Solved cases below.
Recall and state the measured Minimum Inhibitory Concentrations, E. coli To1C for NC1CCN(c2c(Cl)cc3c4c(cc([N+](=O)[O-])cc24)C(=O)N(O)C3=O)C1.O=C(O)C(F)(F)F (centres unmarked) . 0.5

Name the recorded Minimum Inhibitory Concentrations, E. coli To1C of the molecule listed here: NC1CCN(c2ccc3c4c(cc(Cl)c(Cl)c24)C(=O)N(O)C3=O)C1.O=C(O)C(F)(F)F (centres unmarked) 0.25

Identify measured Minimum Inhibitory Concentrations, E. coli To1C corresponding to CC(C)NCC1CCN(c2c(Cl)cc3c4c(cccc24)C(=O)N(O)C3=O)C1.O=C(O)C(F)(F)F (centres unmarked) 0.5

Given the molecule O=C1c2cccc3c4c(cc(c23)C(=O)N1O)OCN(C1CC1)C4 , write its reported Minimum Inhibitory Concentrations, E. coli To1C. 8.0

Further cases:
State, in one line, measured Minimum Inhibitory Concentrations, E. coli To1C of NC1CCN(c2c(Cl)cc3c4c(cccc24)C(=O)N(O)C3=O)C1.O=C(O)C(F)(F)F (centres unmarked) 0.5

---

target: E. coli gyrase (Escherichia coli, UniProt P0AES4+P0AES6); construct: purchased Lucent, Ltd., Leicester, UK; assay: DNA gyrase supercoiling inhibition assay; format: biochemical
Field 'label' (enum: class 1 / class 0). Set to class 1 when IC50 is strictly under 6 µM; else class 0.

Report whether reported IC50 is lower than 6 µM (strictly) for O=C1c2cccc3c(N4CCOCC4)c([N+](=O)[O-])cc(c23)C(=O)N1O class 0

Hello, I'm reviewing records and need to know if IC50 of CN1CCN(c2c(Cl)cc3c4c(cccc24)C(=O)N(O)C3=O)CC1 is below 6 µM. Could you check? class 0

Strictly below 6 µM: is that where IC50 of O=C1c2cc([N+](=O)[O-])cc3cc([N+](=O)[O-])cc(c23)C(=O)N1O sits? class 0

Further cases:
Given NCC1CCN(c2c(Cl)cc3c4c(cccc24)C(=O)N(O)C3=O)C1 (centres unmarked) , is recorded IC50 strictly lower than 6 µM? class 1

A record lists CC1(CN)CCN(c2c(Cl)cc3c4c(cccc24)C(=O)N(O)C3=O)C1 (centres unmarked) . Is its IC50 below 6 µM? class 1

---

Measured pIC50 values are reported for all entries that follow.
target: relaxed plasmid pBR322; assay: DNA intercalation/binding assay; conditions: pBR322 with calf thymus topoisomerase I, 30 minutes at 37° C.; read-out: Drug Concentration causing 50% Intercalation of DNA
pIC50: −log10 of the molar value.

Guide cases for pIC50, answers given:
Respond only with pIC50 recorded for COc1cc2c3c(cccc3c1)C(=O)N(O)C2=O [Example 13] < 4.00

Give recorded pIC50. O=C1c2cccc3cc(F)cc(c23)C(=O)N1O [Example 11] < 4.00

Hello, please tell me recorded pIC50 for this one: Nc1cc2c3c(cccc3c1Cl)C(=O)N(O)C2=O [Example 28] < 4.00

Please give the documented pIC50 of CSc1ccc2c3c(cccc13)C(=O)N(O)C2=O [Example 16] < 4.00

Read the entry Nc1ccc2c3c(cccc13)C(=O)N(O)C2=O [Example 7] and write its reported pIC50. < 4.00

Output pIC50 of O=C1c2cccc3c([N+](=O)[O-])ccc(c23)C(=O)N1O [Example 2] < 4.00

Check the records and state pIC50 for O=C1c2cccc3c(Cl)c(Cl)cc(c23)C(=O)N1O [Example 103] 4.59

Specify reported pIC50 for the compound shown: O=C1c2cccc3c4c(cc(c23)C(=O)N1O)OCO4 [Example 122] < 4.00

Report measured pIC50; entry is CN(C)CCN1C(=O)c2cccc3cc(N)cc(c23)C1=O [Amonafide, amonafide, reference compound] > 5.00

// Input: O=C1c2cc([N+](=O)[O-])cc3cc([N+](=O)[O-])cc(c23)C(=O)N1O [Example 42] . Output its pIC50 only. < 4.00

More entries:
For the compound COc1cc2c3c(cccc3c1Br)C(=O)N(O)C2=O [Example 32] , report pIC50. < 4.00

Using known records, supply pIC50 for COc1cc2c3c(cccc3c1N)C(=O)N(O)C2=O [Example 30] < 4.00

Return pIC50 for the following compound: Nc1cc2c3c(cccc3c1)C(=O)N(O)C2=O [Example 8] < 4.00

Please report pIC50 for the following compound: CN1CCN(c2c(Cl)cc3c4c(cccc24)C(=O)N(O)C3=O)CC1 [Example 98] 4.72

Note down pIC50 recorded for O=C1c2cccc3cc([N+](=O)[O-])cc(c23)C(=O)N1O [Example 1] < 4.00

---

S. aureus 29213: reported MIC for various molecules.
Dear colleague, please return just the value in µg/mL, with no unit written.

Example cases with answers are listed next.
Give the reported value of MIC for this record: O=C1c2ccc([N+](=O)[O-])c3c([N+](=O)[O-])ccc(c23)C(=O)N1O [Example 48] 2

Output MIC of O=C1c2cccc3c(N4CCCCC4)c(Br)cc(c23)C(=O)N1O [Example 49] 2

New cases:
Specify measured MIC for Nc1cc2c3c(cccc3c1N1CCCCC1)C(=O)N(O)C2=O [Example 71] . 2

---

biological target: E. coli gyrase (Escherichia coli, UniProt P0AES4+P0AES6); construct: purchased Lucent, Ltd., Leicester, UK; test: DNA gyrase supercoiling inhibition assay; type: biochemical; conditions: supercoiling of relaxed pBR322, 30 minutes at 37° C.; read-out: DNA Gyrase IC50
Measurement label: IC50 (µM)
Give your result in µM as a bare value.

Observe how each entry below is paired with its result.
Given the molecule NC1CCN(c2c(Cl)cc3c4c(cc([N+](=O)[O-])cc24)C(=O)N(O)C3=O)C1.O=C(O)C(F)(F)F (stereo not shown) , write its reported IC50. 0.7

Supply reported IC50 belonging to this molecule: O=C1c2cccc3c4c(cc(c23)C(=O)N1O)OCO4 19

Indicate the recorded IC50 value for this molecule: CN1CCN(c2c(Br)cc3c4c(cccc24)C(=O)N(O)C3=O)CC1 31

Note: attention shifts to another entry.
Please report IC50 for the following molecule: NC1CCN(c2ccc3c4c(cccc24)C(=O)N(O)C3=O)C1 (stereo not shown) 18
